Assay: qHTS assay to identify small molecule antagonists of the estrogen receptor beta (ER-beta) signaling pathway - cell viability counter screen (AID 1259382); also: nearly all actives have a fitted effect of over 55% in size; also: potency is read from the fitted curve at half-maximal effect
Conditions: ER-beta-UAS-bla HEK293T viability, CellTiter-Glo luminescence, 16 h; series mostly up to 92.4 µM
Records with an inconclusive call do not appear. Activity calls are given as the source filed them. Calls follow the shape of the dose curve; as a rule, active = well fitted cell-killing curve with a large enough effect in the repeat runs; inconclusive = weak or mixed curves; inactive = flat fitted curve, though single readings scatter.
Property measured: Potency

Use these answered entries as a reference point.
[ask] What does the record list as Potency for CC1(C)[C@H](C(=O)OCc2cccc(Oc3ccccc3)c2)[C@@H]1C=C(Cl)Cl ?
[reply] inactive

[ask] Moving on to the next compound: C=CC(=O)OCC(Br)CBr (configuration not stated)
[reply] inactive

[ask] Moving on to the next compound: CCc1cccc(C)c1N(C(=O)C(=O)O)C(C)COC (configuration not stated)
[reply] inactive

[ask] Moving on to the next compound: [Cl][Sc]([Cl])[Cl]
[reply] inactive

[ask] Moving on to the next compound: Clc1cccc(Cl)n1
[reply] inactive

More entries:
[ask] What does the record list as Potency for COc1cc(OC)nc(NC(=O)NS(=O)(=O)Nc2ccccc2C(=O)N(C)C)n1 ?
[reply] inactive

[ask] Moving on to the next compound: NCc1cccc(C2CCN(C(=O)c3ccc(C#Cc4ccccc4F)o3)CC2)c1
[reply] 61.1 µM (active)

[ask] Moving on to the next compound: Nc1ccc2c(S(=O)(=O)O)cccc2c1S(=O)(=O)O
[reply] inactive

[ask] Moving on to the next compound: NCc1ccco1
[reply] inactive

[ask] Moving on to the next compound: C/C=C/C(=O)C1=C(C)C=CCC1(C)C
[reply] inactive

[ask] Moving on to the next compound: CN(C[C@@H](CC[N+]12CCC(C3CCCCC3)(CC1)CC2)c1ccc(Cl)c(Cl)c1)C(=O)c1cc(C(F)(F)F)cc(C(F)(F)F)c1
[reply] 17.2 µM (active)

[ask] Moving on to the next compound: CCCCCCCCc1ccc(Nc2ccc(CCCCCCCC)cc2)cc1
[reply] inactive

---

Target: Cytochrome P450 2D6 (Homo sapiens)
Assay: Cytochrome P450 Family 2 Subfamily D Member 6 (CYP2D6) small molecule antagonists: luciferase reporter qHTS assay (AID 1671196); also: % is scaled to controls: 0 for no effect and ±100 for the full control effect; nearly all actives have a fitted effect of over 50% in size
Conditions: P450-Glo CYP2D6 enzyme assay, luciferin luminescence, 1 h; series mostly up to 115 µM
Results filed as inconclusive are left out. The source made the active and inactive calls. Calls follow the shape of the dose curve; as a rule, active = well fitted inhibition curve with a large enough effect in the repeat runs; inconclusive = weak or mixed curves; inactive = no such curve, though single readings can be large or run the other way.
Record form. Attribute: activity change, negative = inhibition. Fill in for each entry.

[ask] What does the record list as activity change, negative = inhibition for O=C(O)CN(CCCN(CC(=O)O)CC(=O)O)CC(=O)O ?
[reply] 2.09% [at 23.6 µM] (inactive)

[ask] Moving on to the next compound: CCCCNc1ccc(NCCCC)c2c1C(=O)c1ccccc1C2=O
[reply] 0.95% [at 23.6 µM] (inactive)

[ask] Moving on to the next compound: CCCCCCCCCCCCS(=O)(=O)Cl
[reply] -14.2% [at 23.6 µM] (inactive)

[ask] Moving on to the next compound: COc1cc(C(C)C)ccc1C
[reply] -6.69% [at 23.6 µM] (inactive)

[ask] Moving on to the next compound: C=C[Si](C)(C)Cl
[reply] 0.847% [at 10.5 µM] (inactive)

[ask] Moving on to the next compound: C=CC(=O)OCCOC1C2CCC1C1CC=CC12 (stereo unspecified)
[reply] -35.4% [at 23.6 µM] (inactive)

---

Molecular target: Nuclear receptor subfamily 1 group I member 2 (Homo sapiens)
Experiment: CYP3A4 induction through human pregnane X receptor (PXR) by small molecules, qHTS assay (AID 1346984); also: % is scaled to controls: 0 for no effect and ±100 for the full control effect; nearly all actives have a fitted effect of over 40% in size
Details: DPX-2 HepG2 PXR, CYP3A4-luciferin luminescence, 24 h; series mostly up to 46.1 µM
Results filed as inconclusive are left out. The source made the active and inactive calls. Calls follow the shape of the dose curve; as a rule, active = well fitted activation curve with a large enough effect in the repeat runs; inconclusive = weak or mixed curves; inactive = no such curve, though single readings can be large or run the other way.
Property measured: outcome

[ask] What does the record list as outcome for O=C1c2ccccc2CN2C(=O)c3ccccc3CN12 ?
[reply] inactive

[ask] Moving on to the next compound: O=S(=O)(O)CC(S)CS (stereo not given)
[reply] inactive

[ask] Moving on to the next compound: Cc1cc(=O)c(C(=O)N[C@@H](C(=O)N[C@@H]2C(=O)N3C(C(=O)O)=C(CSc4nnnn4C)CS[C@H]23)c2ccc(O)cc2)c[nH]1
[reply] inactive

[ask] Moving on to the next compound: CC(C)(O/N=C(\C(=O)N[C@@H]1C(=O)N2C(C(=O)[O-])=C(C[n+]3ccccc3)CS[C@H]12)c1csc(N)n1)C(=O)O
[reply] inactive

[ask] Moving on to the next compound: O=C1CC[C@@H](C(=O)N[C@H]2C[C@@H]2c2ccccc2)N1
[reply] inactive

[ask] Moving on to the next compound: Cc1onc(-c2c(F)cccc2Cl)c1C(=O)N[C@@H]1C(=O)N2[C@@H]1SC(C)(C)[C@@H]2C(=O)O
[reply] inactive

More entries:
[ask] What does the record list as outcome for N[C@@H](Cc1cnc[nH]1)C(=O)O ?
[reply] inactive

[ask] Moving on to the next compound: CC(C)(C)C(=O)OCC(=O)[C@H]1CC[C@H]2[C@@H]3CCC4=CC(=O)CC[C@]4(C)[C@H]3CC[C@]12C
[reply] inactive

[ask] Moving on to the next compound: C[C@]12O[C@H](C[C@]1(O)CO)n1c3ccccc3c3c4c(c5c6ccccc6n2c5c31)CNC4=O
[reply] inactive

[ask] Moving on to the next compound: NC(N)=NCC1COC2(CCCCC2)O1 (stereo not given)
[reply] inactive

---

Experiment: qHTS assay for small molecules that induce genotoxicity in human embryonic kidney cells expressing luciferase-tagged ATAD5 - cell viability (AID 651634); also: nearly all actives have a fitted effect of over 25% in size
Details: HEK293T ATAD5-luc cells viability, CellTiter-Fluor, 15.5 h; series mostly up to 83.3 µM
Records with an inconclusive call do not appear. The source made the active and inactive calls. Calls come from the whole dose curve.
Parameter call: string, one of t for active, f for inactive

[ask] So what was the verdict on O=C(O)[C@@H]1C[C@H](CP(=O)(O)O)CCN1 in this test?
[reply] f

[ask] Moving on to the next molecule: Cc1onc(-c2c(F)cccc2Cl)c1C(=O)N[C@@H]1C(=O)N2[C@@H]1SC(C)(C)[C@@H]2C(=O)O
[reply] f

[ask] Moving on to the next molecule: O=C1CC[C@@H](C(=O)N[C@H]2C[C@@H]2c2ccccc2)N1
[reply] f

[ask] Moving on to the next molecule: CC[C@@]1([C@@H]2O[C@@H]([C@H]3O[C@@](O)(CO)[C@H](C)C[C@@H]3C)C[C@@H]2C)CC[C@H]([C@]2(C)CC[C@]3(C[C@H](O)[C@@H](C)[C@@H]([C@@H](C)[C@@H](OC)[C@H](C)C(=O)O)O3)O2)O1 (stereo in doubt)
[reply] t

[ask] Moving on to the next molecule: O=C(O)c1cc2cc(Cc3cccnc3)ccc2o1
[reply] f

[ask] Moving on to the next molecule: O=C(O)c1cc(O)c2c(c1)[C@H]([C@H]1c3cc(C(=O)O)cc(O)c3C(=O)c3c(O[C@@H]4O[C@H](CO)[C@@H](O)[C@H](O)[C@H]4O)cccc31)c1cccc(O[C@@H]3O[C@H](CO)[C@@H](O)[C@H](O)[C@H]3O)c1C2=O
[reply] f

[ask] Moving on to the next molecule: Nc1nc(NC2CC2)c2ncn([C@@H]3C=C[C@@H](CO)C3)c2n1
[reply] f

---

Assay: qHTS assay to test for compound auto fluorescence at 590 nm (red) in HEK293 cells (AID 720679); also: % is scaled to controls: 0 for no effect and ±100 for the full control effect
Details: red autofluorescence 540/590 nm; series mostly up to 46 µM
Calls of active or inactive are those of the source. The call rests on the fitted dose curve; in most records, active means well fitted curve in the direction sought with a large enough effect in the repeat runs; inconclusive means weak or mixed curves; inactive means flat fitted curve, though single readings scatter.
Property measured: outcome

[ask] What does the record list as outcome for CN[C@H](CC(C)C)C(=O)N[C@H]1C(=O)N[C@@H](CC(N)=O)C(=O)N[C@H]2C(=O)N[C@H]3C(=O)N[C@H](C(=O)N[C@@H](C(=O)O)c4cc(O)cc(O)c4-c4cc3ccc4O)[C@H](O)c3ccc(c(Cl)c3)Oc3cc2cc(c3O[C@@H]2O[C@H](CO)[C@@H](O)[C@H](O)[C@H]2O[C@H]2C[C@](C)(N)C(O)[C@H](C)O2)Oc2ccc(cc2Cl)[C@H]1O (some centres not stated) ?
[reply] inactive

[ask] Moving on to the next compound: CC(C)CCC[C@@H](C)[C@H]1CC[C@H]2[C@@H]3CC[C@@H]4C[C@H](O)CC[C@]4(C)[C@H]3CC[C@]12C
[reply] inactive

---

Assay: qHTS RealTime-Glo MT Cell Viability Assay in HepG2 cells - 40 hour (AID 1224870); also: nearly all actives have a fitted effect of over 50% in size
Conditions: RealTime-Glo luminescence; series mostly up to 76.8 µM
Records with an inconclusive call do not appear. Activity calls are given as the source filed them. Calls come from the whole dose curve; as a rule, active = well fitted cell-killing curve with a large enough effect in the repeat runs; inconclusive = weak or mixed curves, or effect the other way; inactive = flat fitted curve, though single readings scatter.
Parameter call: string, one of yes (active), no (inactive)

[ask] So what was the verdict on COc1cc(OC)nc(NC(=O)NS(=O)(=O)Nc2ccccc2C(=O)N(C)C)n1 in this test?
[reply] no

[ask] Moving on to the next compound: Cc1cc(Br)ccc1NC(=O)CCl
[reply] yes

[ask] Moving on to the next compound: CCCCC/C=C\C=C\C(=O)OCC
[reply] yes

[ask] Moving on to the next compound: O=C1CCC/C=C\CCCCCCCCCC1
[reply] no

[ask] Moving on to the next compound: CCN(CCC#N)c1ccc(N=Nc2ccc([N+](=O)[O-])cc2)cc1
[reply] no

[ask] Moving on to the next compound: Cc1c(Cl)c(=O)oc2cc(O)ccc12
[reply] no

[ask] Moving on to the next compound: CCC(O)CO (stereo not given)
[reply] no

[ask] Moving on to the next compound: CCCCCCCC/C=C\CCCCCCCC(=O)N(CCO)CCO
[reply] no

[ask] Moving on to the next compound: CC(=O)CC(N)=O
[reply] no

[ask] Moving on to the next compound: C=C(C)C1CCC(C)CC1O (stereo not given)
[reply] no

[ask] Moving on to the next compound: Nc1cc([N+](=O)[O-])cc(Cl)c1O
[reply] no

[ask] Moving on to the next compound: Nc1ccc(Cl)c([N+](=O)[O-])c1
[reply] no

[ask] Moving on to the next compound: C=COCCCC
[reply] no

[ask] Moving on to the next compound: O=C1CCCCCCCCCCCCCC1
[reply] no

[ask] Moving on to the next compound: CCc1cccc(CC)c1
[reply] no

[ask] Moving on to the next compound: O=C(Nc1ccc([N+](=O)[O-])cc1)Nc1ccc([N+](=O)[O-])cc1 (tested in a mixture with another compound)
[reply] no

[ask] Moving on to the next compound: CCCCCCCCCC[N+](C)(CCCCCCCCCC)CCC[Si](OC)(OC)OC
[reply] yes

[ask] Moving on to the next compound: O=c1[nH]cccc1O
[reply] no

[ask] Moving on to the next compound: Oc1ccc(Cl)cc1C1CCCC1
[reply] no

[ask] Moving on to the next compound: CCn1c2ccccc2c2ccccc21
[reply] no

[ask] Moving on to the next compound: CCC(=O)OC/C=C(\C)CCC=C(C)C
[reply] no

[ask] Moving on to the next compound: CN1CCN(C)CC1
[reply] no

[ask] Moving on to the next compound: CSc1nnc(C(C)(C)C)c(=O)[nH]1
[reply] no

[ask] Moving on to the next compound: O=C(N[C@H](CO)[C@H](O)c1ccc([N+](=O)[O-])cc1)C(Cl)Cl
[reply] no

[ask] Moving on to the next compound: C=CC(C)(C)O
[reply] no

[ask] Moving on to the next compound: Cn1c(=O)[nH]c2ncn(C)c2c1=O
[reply] no

[ask] Moving on to the next compound: CC(C=O)c1ccccc1 (stereo not given)
[reply] no

[ask] Moving on to the next compound: Oc1cccc2c(O)cccc12
[reply] no

[ask] Moving on to the next compound: CCCCCN=C(N)N/N=C/c1c[nH]c2ccc(OC)cc12
[reply] yes

[ask] Moving on to the next compound: CC(C)C(=O)C(C)C
[reply] no
